biological target: 85 kD protein / PI3 kinase (phosphatidylinositol 3' kinase) of BALB/c 3T3 cells (mouse (BALB/c 3T3 cells)); experiment: competition: range of peptide concentrations preincubated with 3T3 lysate before immobilised receptor m1; in vitro kinase and PI3 kinase assays
Sequence (P26450 2-724): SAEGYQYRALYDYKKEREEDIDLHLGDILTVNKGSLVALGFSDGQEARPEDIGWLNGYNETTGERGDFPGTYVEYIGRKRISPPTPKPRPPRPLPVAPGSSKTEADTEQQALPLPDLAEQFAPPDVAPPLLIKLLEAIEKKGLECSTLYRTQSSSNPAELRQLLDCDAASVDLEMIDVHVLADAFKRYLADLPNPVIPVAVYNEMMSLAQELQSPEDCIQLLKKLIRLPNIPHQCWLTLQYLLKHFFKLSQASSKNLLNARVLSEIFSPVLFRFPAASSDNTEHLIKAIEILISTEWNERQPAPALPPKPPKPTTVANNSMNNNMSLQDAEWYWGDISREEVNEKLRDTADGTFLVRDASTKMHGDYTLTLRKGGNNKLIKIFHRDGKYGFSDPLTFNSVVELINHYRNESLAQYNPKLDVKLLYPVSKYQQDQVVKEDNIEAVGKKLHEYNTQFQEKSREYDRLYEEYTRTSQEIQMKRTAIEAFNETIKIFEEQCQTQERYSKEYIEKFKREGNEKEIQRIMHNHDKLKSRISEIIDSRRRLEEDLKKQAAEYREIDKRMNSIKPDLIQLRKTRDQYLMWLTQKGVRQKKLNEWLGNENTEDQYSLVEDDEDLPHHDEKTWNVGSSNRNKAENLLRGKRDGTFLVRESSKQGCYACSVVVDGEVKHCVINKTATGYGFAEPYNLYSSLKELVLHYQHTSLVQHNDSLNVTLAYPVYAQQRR
pIC50: −log10 of the molar value. Square brackets hold non-standard residues; d marks the D form. Ends that are not written are not given here. pY = N[C@@H](Cc1ccc(OP(=O)(O)O)cc1)C(=O)O
REPORTED ENDPOINT: pIC50

[
  {
    "BINDER": "GGYMDMSKDESID[pY]VPMLDM [peptide Y719P]",
    "REPORTED ENDPOINT": "pIC50",
    "RESULT": "> 5.30"
  }
]
